System: UDP-glucuronosyltransferases (UGT)
Test: Glucuronidation of naringenin in rat jejunum microsomes
Conditions: Wistar, rat, pH 7.4
Experimental endpoint: Km (µM)
I only need the number, in µM, no unit after it.

QUERY: Return reported Km. Input compound: O=C1C[C@@H](c2ccc(O)cc2)Oc2cc(O)cc(O)c21 [naringenin, Naringenin]
RESULT: 3.62

---

Test system: UDP-glucuronosyltransferases (UGT)
Experiment: Glucuronidation of naringenin in rat liver microsomes
Details: Wistar, rat, pH 7.4
Experimental endpoint: Km (µM)
Quick reminder: number only, in µM, skip the unit.

QUERY: Retrieve Km measured for O=C1C[C@@H](c2ccc(O)cc2)Oc2cc(O)cc(O)c21 [naringenin, Naringenin] and print it.
RESULT: 13.4

---

Test system: UDP-glucuronosyltransferases (UGT)
Assay: in vitro
Conditions: Wistar, rat, pH 7.4
Experimental endpoint: inhibition at 40 min, 50 μM
Report the figure along with its unit, number first.

QUERY: Name the recorded inhibition at 40 min, 50 μM of the item CN(C)C(=O)CCSC(SCCC(=O)O)c1cccc(/C=C/c2ccc3ccc(Cl)cc3n2)c1 (stereo not shown) [MK-571] in your answer.
RESULT: 50%

---

Test system: UDP-glucuronosyltransferases (UGT)
Experiment: Glucuronidation of naringenin in rat ileum microsomes
Conditions: Wistar, rat, pH 7.4
Experimental endpoint: Km (µM)
Note: unit µM is implicit; provide only the numeric part.

QUERY: Provide measured Km on UDP-glucuronosyltransferases (UGT) for O=C1C[C@@H](c2ccc(O)cc2)Oc2cc(O)cc(O)c21 [naringenin, Naringenin] please.
RESULT: 2.54

---

Tested on: UDP-glucuronosyltransferases (UGT)
Test: Glucuronidation of naringenin in rat colon microsomes
Format: in vitro ADME
Conditions: Wistar, rat, pH 7.4
Experimental endpoint: Km (µM)
Lab book: enter the figure in µM, no units written.

QUERY: Report measured Km; entry is O=C1C[C@@H](c2ccc(O)cc2)Oc2cc(O)cc(O)c21
RESULT: 21.2
